These measurements were taken from paper PMC3749181.

tested on: E. rostratum hyphal fragments; test: hyphal fragment fungicidal ATP content assay (PBS, 1536-well); format: cell-based, Exserohilum rostratum; details: Exserohilum rostratum; Table 2; 24 h; inact. = no significant activity in the primary screen; read-out: Hyphae IC50
pIC50: −log10 of the molar value.

MOLECULE	pIC50
N=C(N)c1ccc(OCCCCCOc2ccc(C(=N)N)cc2)cc1 [Pentamidine isethionate]	6.33
Oc1c(Br)cc(Br)c2cccnc12	5.35
CCC(C)n1ncn(-c2ccc(N3CCN(c4ccc(OCC5COC(Cn6cncn6)(c6ccc(Cl)cc6Cl)O5)cc4)CC3)cc2)c1=O (stereo not shown)	5.66
CC(C)N1CCN(c2ccc(OCC3COC(Cn4cncn4)(c4ccc(Cl)cc4Cl)O3)cc2)CC1 (stereo not shown)	5.21
CC(=O)N1CCN(c2ccc(OCC3COC(Cn4ccnc4)(c4ccc(Cl)cc4Cl)O3)cc2)CC1 (stereo not shown)	5.62
O=c1[nH]c(=O)n([C@H]2C[C@H](O)[C@@H](CO)O2)cc1F	6.07
CCCCCCC(=O)CCCCCC/C=C/C[C@@H](O)[C@H](O)[C@@](N)(CO)C(=O)O	5.56

###

system: SH-SY5Y cells; assay: SH-SY5Y cytotoxicity counter-screen (ATP content assay); assay type: cell-based, Human; settings: Table 2, SH-SY5Y; 46 µM Amphotericin B = 100%; inact. = no significant activity at 46 µM

COMPOUND	TGT	SH-SY5Y % Max. Resp.
CC(C)(C)c1cc(C=C(C#N)C#N)cc(C(C)(C)C)c1O	SH-SY5Y cells	61%
C=CC[C@@H]1/C=C(\C)C[C@H](C)C[C@H](OC)[C@H]2O[C@@](O)(C(=O)C(=O)N3CCCC[C@H]3C(=O)O[C@H](/C(C)=C/[C@@H]3CC[C@@H](O)[C@H](OC)C3)[C@H](C)[C@@H](O)CC1=O)[C@H](C)C[C@@H]2OC	SH-SY5Y cells	inact.
Oc1c(Cl)cc(Cl)c(Cl)c1Cc1c(O)c(Cl)cc(Cl)c1Cl	SH-SY5Y cells	inact.
O=c1[nH]c(=O)n([C@H]2C[C@H](O)[C@@H](CO)O2)cc1F	SH-SY5Y cells	inact.
CC(C)(C)c1cc(/C=C(\C#N)C(N)=S)cc(C(C)(C)C)c1O	SH-SY5Y cells	inact.
CO/C=C(/C(=O)OC)c1ccccc1Oc1cc(Oc2ccccc2C#N)ncn1	SH-SY5Y cells	inact.
Oc1c(Cl)cc(Cl)cc1Sc1cc(Cl)cc(Cl)c1O	SH-SY5Y cells	inact.
Cc1cc(N)c2ccccc2[n+]1CCCCCCCCCC[n+]1c(C)cc(N)c2ccccc21 [Dequalinium dichloride]	SH-SY5Y cells	inact.
CCC(C)n1ncn(-c2ccc(N3CCN(c4ccc(OCC5COC(Cn6cncn6)(c6ccc(Cl)cc6Cl)O5)cc4)CC3)cc2)c1=O (stereo not drawn)	SH-SY5Y cells	inact.
CC1(C)CCC(=Cc2ccc(Cl)cc2)C1(O)Cn1cncn1 (stereo not drawn)	SH-SY5Y cells	inact.
N=C(N)c1ccc(OCCCCCOc2ccc(C(=N)N)cc2)cc1 [Pentamidine isethionate]	SH-SY5Y cells	inact.
O=C1C2CC=CCC2C(=O)N1SC(Cl)(Cl)Cl (stereo not drawn)	SH-SY5Y cells	100%
Oc1c(Br)cc(Br)c2cccnc12	SH-SY5Y cells	100%
Clc1ccc(C(Cn2ccnc2)OCc2ccsc2Cl)c(Cl)c1 (stereo not drawn)	SH-SY5Y cells	inact.
C[C@@H]1[C@H](O)[C@@H](C)/C=C/C=C/C=C/C=C/C=C/C=C/C=C/[C@H](O[C@@H]2O[C@H](C)[C@@H](O)[C@H](N)[C@@H]2O)C[C@@H]2O[C@](O)(C[C@@H](O)C[C@@H](O)[C@H](O)CC[C@@H](O)C[C@@H](O)CC(=O)O[C@H]1C)C[C@H](O)[C@H]2C(=O)O	SH-SY5Y cells	inact.
